B1: Hairpin Ribozyme (parent)
chain: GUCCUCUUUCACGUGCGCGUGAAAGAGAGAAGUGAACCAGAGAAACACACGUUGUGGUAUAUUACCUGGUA

Variants of: B1
experimental_protocol: self-cleavage, relative activity (ratio to wild type); higher = more cleavage; co-transcriptional
reported_metric: self-cleavage

variant_spec: U14G A26G
reported_metric: self-cleavage
measured_value: 0.781
--
variant_spec: G25U A47C
reported_metric: self-cleavage
measured_value: 0.241
--
variant_spec: A49G U63C
reported_metric: self-cleavage
measured_value: 0.253
--
variant_spec: C12U U53A
reported_metric: self-cleavage
measured_value: 0.974
--
variant_spec: U5G G15C
reported_metric: self-cleavage
measured_value: 0.249
--
variant_spec: G19C A45C
reported_metric: self-cleavage
measured_value: 0.114
--
variant_spec: G1A A44C
reported_metric: self-cleavage
measured_value: 0.2
--
variant_spec: A30C A64U
reported_metric: self-cleavage
measured_value: 0.211
--
variant_spec: G54U G69A
reported_metric: self-cleavage
measured_value: 0.122
--
variant_spec: U2A U55A
reported_metric: self-cleavage
measured_value: 0.103
--
variant_spec: U2A G54U
reported_metric: self-cleavage
measured_value: 0.119
--
variant_spec: A22U C48A
reported_metric: self-cleavage
measured_value: 0.16
--
variant_spec: A24U G40U
reported_metric: self-cleavage
measured_value: 0.187
--
variant_spec: U53G U63G
reported_metric: self-cleavage
measured_value: 0.156
--
variant_spec: G19U C66A
reported_metric: self-cleavage
measured_value: 0.272
--
variant_spec: A30U A43C
reported_metric: self-cleavage
measured_value: 0.117
--
variant_spec: C10U G34U
reported_metric: self-cleavage
measured_value: 1.09
--
variant_spec: C6G U8G
reported_metric: self-cleavage
measured_value: 0.269
--
variant_spec: C50G G57U
reported_metric: self-cleavage
measured_value: 0.307
--
variant_spec: G15U A45C
reported_metric: self-cleavage
measured_value: 0.169
--
variant_spec: A26C A61U
reported_metric: self-cleavage
measured_value: 0.184
--
variant_spec: G42A A45G
reported_metric: self-cleavage
measured_value: 0.138
--
variant_spec: U20G U60C
reported_metric: self-cleavage
measured_value: 0.815
--
variant_spec: G29U C38U
reported_metric: self-cleavage
measured_value: 0.1
--
variant_spec: G57A C66A
reported_metric: self-cleavage
measured_value: 0.215
--
variant_spec: A44G G68U
reported_metric: self-cleavage
measured_value: 0.173
--
variant_spec: A36U A43C
reported_metric: self-cleavage
measured_value: 0.0574
--
variant_spec: U20A G21U
reported_metric: self-cleavage
measured_value: 0.642
--
variant_spec: C37A A49G
reported_metric: self-cleavage
measured_value: 0.325
--
variant_spec: U5A G69C
reported_metric: self-cleavage
measured_value: 0.0571
--
variant_spec: A26C G40A
reported_metric: self-cleavage
measured_value: 0.295
--
variant_spec: C18G U53G
reported_metric: self-cleavage
measured_value: 0.819
--
variant_spec: G17U A31U
reported_metric: self-cleavage
measured_value: 0.104
--
variant_spec: G13C A36U
reported_metric: self-cleavage
measured_value: 0.4
--
variant_spec: U5C G69C
reported_metric: self-cleavage
measured_value: 0.0944
--
variant_spec: A41G U53A
reported_metric: self-cleavage
measured_value: 1.1
--
variant_spec: G51A C66A
reported_metric: self-cleavage
measured_value: 0.344
--
variant_spec: G15C G19C
reported_metric: self-cleavage
measured_value: 0.786
--
variant_spec: C18A A28U
reported_metric: self-cleavage
measured_value: 0.844
--
variant_spec: G21C G32A
reported_metric: self-cleavage
measured_value: 0.141
--
variant_spec: U7G A23G
reported_metric: self-cleavage
measured_value: 0.752
--
variant_spec: G32U A44U
reported_metric: self-cleavage
measured_value: 0.243
--
variant_spec: G27A G42U
reported_metric: self-cleavage
measured_value: 0.147
